assay: In vivo pharmacokinetics study in rats; conditions: male, Sprague-Dawley, rat, plasma, iv, 2 mg/kg, Cmax, i.v. 2 mg/kg
Attribute Measured: Cmax (ng/mL)
Numbers only, in ng/mL.

Input line: What does the data say about its Cmax? Entry: Cc1cc(C)cc(S(=O)(=O)c2c(C(=O)NCCCCNS(=O)(=O)c3cccnc3)[nH]c3ccc(Cl)cc23)c1
Output line: 657

* * *

assay: In vivo pharmacokinetics study in rats; details: male, Sprague-Dawley, rat, plasma, po, 10 mg/kg
Attribute Measured: MRT inf (h)
Numbers only, in h.

Input line: Which MRT inf reading was recorded for the compound Cc1cc(C)cc(S(=O)(=O)c2c(C(=O)NCCCCNS(=O)(=O)c3cccnc3)[nH]c3ccc(Cl)cc23)c1 ?
Output line: 2.27

* * *

assay: Cytotoxicity in mock-infected MT-4 cells, MTT method; format: cell-based; conditions: human, mock-infected MT-4 cells, CC50, mock-infected MT-4 cells
Attribute Measured: log10 of CC50 at 5 days (log10 of the value in µM)
Use the decimal logarithm of CC50 at 5 days (µM).

Check out these entries, answers already filled in.
Input line: Looking for the measured log10 of CC50 at 5 days of Cc1cc(C)cc(S(=O)(=O)c2c(C(=O)NCCCNS(=O)(=O)c3ccc([N+](=O)[O-])cc3)[nH]c3ccc(Cl)cc23)c1 , can you help?
Output line: 1.36

Input line: Tell me the measured log10 of CC50 at 5 days of Cc1cc(C)cc(S(=O)(=O)c2c(C(=O)NCCCCCNS(=O)(=O)c3ccc(Br)cc3)[nH]c3ccc(Cl)cc23)c1 , please.
Output line: 1.58

Input line: Requested field: log10 of CC50 at 5 days. Item: Cc1cc(C)cc(S(=O)(=O)c2c(C(=O)NCCCCNS(=O)(=O)c3ccc(C#N)cc3)[nH]c3ccc(Cl)cc23)c1
Output line: 0.66

Input line: Which log10 of CC50 at 5 days reading was recorded for the compound Cc1cc(C)cc(S(=O)(=O)c2c(C(=O)NCCCNS(=O)(=O)c3ccccc3F)[nH]c3ccc(Cl)cc23)c1 ?
Output line: 2.28

Input line: If you can, please state the reported log10 of CC50 at 5 days value of Cc1cc(C)cc(S(=O)(=O)c2c(C(=O)NCCNS(=O)(=O)c3cccc(F)c3)[nH]c3ccc(Cl)cc23)c1 .
Output line: 2.27

Input line: Fill blank: measured log10 of CC50 at 5 days of the compound Cc1cc(C)cc(S(=O)(=O)c2c(C(=O)NCCCCNS(=O)(=O)c3ccccc3F)[nH]c3ccc(Cl)cc23)c1 is ____.
Output line: 2.28

Input line: Dear colleague, I am looking for the recorded log10 of CC50 at 5 days of the following compound: Cc1cc(C)cc(S(=O)(=O)c2c(C(=O)NCCCCNS(=O)(=O)c3ccc([N+](=O)[O-])cc3)[nH]c3ccc(Cl)cc23)c1
Output line: 2.02

Input line: Returns the measured log10 of CC50 at 5 days for the input compound. Input: Cc1cc(C)cc(S(=O)(=O)c2c(C(=O)NCCNS(=O)(=O)c3cccnc3)[nH]c3ccc(Cl)cc23)c1
Output line: 1.37

Input line: Consider the compound Cc1cc(C)cc(S(=O)(=O)c2c(C(=O)NCCCCNS(=O)(=O)c3ccc(Br)cc3)[nH]c3ccc(Cl)cc23)c1 and give its measured log10 of CC50 at 5 days.
Output line: 1.43

Could you now consider this next compound?
Input line: Need log10 of CC50 at 5 days, item Cc1cc(C)cc(S(=O)(=O)c2c(C(=O)NCCCCCNS(=O)(=O)c3ccc(Cl)cc3)[nH]c3ccc(Cl)cc23)c1
Output line: 2.06

* * *

test system: HIV-1 WT strain (IIIB); test: Anti-HIV activity against WT HIV-1; conditions: WT HIV-1 IIIB
Assign SI IIIB (CC50/EC50 ratio) to each entry below.

Example cases with answers are listed next.
Input line: Test system HIV-1 WT strain (IIIB); read-out SI IIIB (CC50/EC50 ratio); what value for Cc1cc(C)cc(S(=O)(=O)c2c(C(=O)NCCCNS(=O)(=O)c3ccc(Cl)cc3)[nH]c3ccc(Cl)cc23)c1 ?
Output line: >12,913

Input line: I'm curious: which SI IIIB (CC50/EC50 ratio) was measured for Cc1ccnc2c1NC(=O)c1cccnc1N2C1CC1 [NVP, Nevirapine, reference compound] tested on HIV-1 WT strain (IIIB)?
Output line: >114

Respectfully, I request SI IIIB (CC50/EC50 ratio) for each entry included below.
1. Cc1cc(C)cc(S(=O)(=O)c2c(C(=O)NCCNS(=O)(=O)c3ccccc3F)[nH]c3ccc(Cl)cc23)c1
2. Cc1cc(C#N)cc(C)c1Oc1nc(Nc2ccc(C#N)cc2)nc(N)c1Br [ETR, Etravirine, reference compound]
3. Cc1cc(C)cc(S(=O)(=O)c2c(C(=O)NCCNS(=O)(=O)c3ccc(Cl)cc3)[nH]c3ccc(Cl)cc23)c1

Output line:
1: 11,116; 2: >900; 3: 13,010

Record SI IIIB (CC50/EC50 ratio) per entry; entries follow.
1. Cc1cc(C)cc(S(=O)(=O)c2c(C(=O)NCCCNS(=O)(=O)c3ccccc3)[nH]c3ccc(Cl)cc23)c1
2. Cc1cc(C)cc(S(=O)(=O)c2c(C(=O)NCCCCCNS(=O)(=O)c3ccc([N+](=O)[O-])cc3)[nH]c3ccc(Cl)cc23)c1
3. Cc1cc(C)cc(S(=O)(=O)c2c(C(=O)NCCCCNS(=O)(=O)c3cccnc3)[nH]c3ccc(Cl)cc23)c1
4. Cc1cc(C)cc(S(=O)(=O)c2c(C(=O)NCCNS(=O)(=O)c3ccccc3)[nH]c3ccc(Cl)cc23)c1
5. Cc1cc(C)cc(S(=O)(=O)c2c(C(=O)NCCCCNS(=O)(=O)c3ccc(Cl)cc3)[nH]c3ccc(Cl)cc23)c1

Output line:
1. >8047
2. >7548
3. 30,930
4. 13,509
5. 10,389

* * *

Provide the recorded EC50 for the entries that follow.
test system: HIV-1 mutant strain L100I; assay: microbe, parasite or virus in culture; format: cell-based; conditions: Human immunodeficiency virus 1, MT4, read-out: EC50 L100I
Answers are plain numbers, in nM.

Look over these answered cases.
Input line: Reported EC50 for Cc1cc(C)cc(S(=O)(=O)c2c(C(=O)NCCCNS(=O)(=O)c3cccs3)[nH]c3ccc(Cl)cc23)c1 : what is it?
Output line: 500

Input line: Given Cc1ccc(S(=O)(=O)NCCCCCNC(=O)c2[nH]c3ccc(Cl)cc3c2S(=O)(=O)c2cc(C)cc(C)c2)cc1 , state its recorded EC50.
Output line: 170

Input line: Please report the recorded EC50 for Cc1cc(C)cc(S(=O)(=O)c2c(C(=O)NCCNS(=O)(=O)c3cccnc3)[nH]c3ccc(Cl)cc23)c1 .
Output line: 140

Please examine the following record next.
Input line: Quick one: EC50 for Cc1cc(C)cc(S(=O)(=O)c2c(C(=O)NCCCCNS(=O)(=O)c3ccc([N+](=O)[O-])cc3)[nH]c3ccc(Cl)cc23)c1 ?
Output line: 130

* * *

For each record, write down the corresponding EC50.
tested on: HIV-1 mutant strain L100I; assay: microbe, parasite or virus in culture; type: cell-based; details: Human immunodeficiency virus 1, MT4, read-out: EC50 L100I
Could you kindly put the unit after your number?

Input line: If you can, please state the reported EC50 value of Cc1cc(C)cc(S(=O)(=O)c2c(C(=O)NCCCCNS(=O)(=O)c3cccc(F)c3)[nH]c3ccc(Cl)cc23)c1 [R12L4] .
Output line: 63 nM

Input line: Value lookup for EC50; key = Cc1cc(C)cc(S(=O)(=O)c2c(C(=O)NCCCCCNS(=O)(=O)c3ccc(C#N)cc3)[nH]c3ccc(Cl)cc23)c1 [R5L5]
Output line: 77 nM

Input line: Can you share its EC50? I mean this molecule: Cc1cc(C)cc(S(=O)(=O)c2c(C(=O)NCCCNS(=O)(=O)c3cccnc3)[nH]c3ccc(Cl)cc23)c1 [R10L3]
Output line: 100 nM

Query molecule follows.
Input line: Which EC50 value belongs to Cc1cc(C)cc(S(=O)(=O)c2c(C(=O)NCCCCCNS(=O)(=O)c3ccc(F)cc3)[nH]c3ccc(Cl)cc23)c1 [R4L5] ?
Output line: 74 nM

* * *

So I've got a bunch of molecules here, and I need their SI IIIB (CC50/EC50 ratio) values.
tested on: HIV-1 WT strain (IIIB); assay: Anti-HIV activity against WT HIV-1; settings: WT HIV-1 IIIB

Reference set, count: 3
Input line: Dear colleague, I am looking for the recorded SI IIIB (CC50/EC50 ratio) of the following molecule: Cc1cc(C)cc(S(=O)(=O)c2c(C(=O)NCCNS(=O)(=O)c3ccc(F)cc3)[nH]c3ccc(Cl)cc23)c1
Output line: >7921

Input line: Param item = Cc1cc(C)cc(S(=O)(=O)c2c(C(=O)NCCCCNS(=O)(=O)c3ccccc3)[nH]c3ccc(Cl)cc23)c1 ; retrieve measured SI IIIB (CC50/EC50 ratio).
Output line: 15,106

Input line: Which SI IIIB (CC50/EC50 ratio) is listed for Cc1cc(C)cc(S(=O)(=O)c2c(C(=O)NCCNS(=O)(=O)C3CC3)[nH]c3ccc(Cl)cc23)c1 ?
Output line: 41,951

Please give SI IIIB (CC50/EC50 ratio), item by item, for the list that follows.
1. Cc1cc(C)cc(S(=O)(=O)c2c(C(=O)NCCNS(=O)(=O)c3ccc([N+](=O)[O-])cc3)[nH]c3ccc(Cl)cc23)c1
2. Cc1cc(C)cc(S(=O)(=O)c2c(C(=O)NCCCCCNS(=O)(=O)c3ccc(Cl)cc3)[nH]c3ccc(Cl)cc23)c1
3. Cc1cc(C)cc(S(=O)(=O)c2c(C(=O)NCCCNS(=O)(=O)c3ccccc3F)[nH]c3ccc(Cl)cc23)c1

Output line:
1: >1764; 2: 11,132; 3: 12,570
